- Assay details: Cytotoxicity against human HCC1395BL cells assessed as inhibition of cell viability at 30 uM measured after 48 hrs by MTT assay
- Type: cell-based
- Settings: read-out: INH
I'd appreciate it if you could supply cytotoxicity at 48 h, 30 µM values for the items below.
One number for each entry, in %.

OCC(CC1CCCCC1)NCc1nc2c(OCC3CCCCC3)cccc2[nH]1 (configuration not stated)	12.5

May I ask what cytotoxicity at 48 h, 30 µM has been recorded for CCC(CO)NCc1nc2c(OCC3CCCCC3)cccc2[nH]1 (configuration not stated) ?
7.5

====

I'd appreciate it if you could supply inhibition values for the items below.
- Measured target: Interleukin-5 receptor subunit alpha (Mus musculus) (UniProt P21183)
- Sequence (P21183 whole entry): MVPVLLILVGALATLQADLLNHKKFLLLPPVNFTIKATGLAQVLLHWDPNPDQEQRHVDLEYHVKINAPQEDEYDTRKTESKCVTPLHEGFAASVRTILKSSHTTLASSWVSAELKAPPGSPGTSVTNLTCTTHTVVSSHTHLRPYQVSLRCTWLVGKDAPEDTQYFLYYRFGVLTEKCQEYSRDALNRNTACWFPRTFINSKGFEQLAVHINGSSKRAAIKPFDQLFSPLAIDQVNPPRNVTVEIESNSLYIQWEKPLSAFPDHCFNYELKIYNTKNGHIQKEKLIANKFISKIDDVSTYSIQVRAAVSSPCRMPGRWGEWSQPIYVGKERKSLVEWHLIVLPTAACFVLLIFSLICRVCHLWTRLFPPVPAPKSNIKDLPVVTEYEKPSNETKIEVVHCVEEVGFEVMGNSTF
- Assay details: Inhibition of IL-5 receptor in mouse pro-B Y16 cells assessed as decrease in mIL-5 dependent cell proliferation at 30 uM after 48 hrs in presence of 3 units/ml mIL-5 by WST-1 assay relative to control
- Format: cell-based
Answers are plain numbers, in %.

These solved cases illustrate the format of a correct answer.
OCCCCCNCc1nc2c(OCC3CCCCC3)cccc2[nH]1	23.7
COc1ccc(NCc2nc3c(OCC4CCCCC4)cccc3[nH]2)cc1	20.3
OCCN(Cc1ccc(Cl)cc1)Cc1nc2c(OCC3CCCCC3)cccc2[nH]1	96
CC(C)(CO)NCc1nc2c(OCC3CCCCC3)cccc2[nH]1	54.7
CCN(CCO)Cc1nc2c(OCC3CCCCC3)cccc2[nH]1	34.7
c1ccc(CNCc2nc3c(OCC4CCCCC4)cccc3[nH]2)cc1	49.3
COc1ccc(CN(CCO)Cc2nc3c(OCC4CCCCC4)cccc3[nH]2)cc1	73.3
OCCN(Cc1nc2c(OCC3CCCCC3)cccc2[nH]1)C1CCCCC1	24

Would you be so kind as to report inhibition for each listed record?
1. OCCN(Cc1ccccc1)Cc1nc2c(OCC3CCCCC3)cccc2[nH]1
2. CCC(CO)NCc1nc2c(OCC3CCCCC3)cccc2[nH]1 (centres undefined)
3. OCCN(Cc1nc2c(OCC3CCCCC3)cccc2[nH]1)CC1CCCCC1

62.3
94.3
76.7

Would you be so kind as to report inhibition for each listed record?
1. OCCC(NCc1nc2c(OCC3CCCCC3)cccc2[nH]1)c1ccccc1 (centres undefined)
2. OCCNCc1nc2c(OCC3CCCCC3)cccc2[nH]1
3. OCCCCNCc1nc2c(OCC3CCCCC3)cccc2[nH]1

64.7
63.3
44.3
